Exercise: for every item that follows, state its recorded TGI.
- Test system: RPMI-8226 leukemia
- PROCEDURE_TEXT: NCI tumour cell line growth inhibition, 48 h

| MOLECULE | SUBJECT_OF_TEST | TGI |
| --- | --- | --- |
| Clc1coc2nc3ccccc3c(Nc3ccc4c(c3)OCO4)c12 | RPMI-8226 leukemia | 4.44 µM |
| COc1cc(Nc2cn[nH]c2-c2ccc(Cl)cc2)cc(OC)c1OC | RPMI-8226 leukemia | 12.3 µM |
| CN(C)Cc1cc(C(=O)/C=C/c2ccc(Cl)cc2)cc(CN(C)C)c1O | RPMI-8226 leukemia | 42.6 µM |
| CCn1c(-c2cc(OC)cc(OC)c2)nc2c1C(=O)c1ccccc1C2=O | RPMI-8226 leukemia | > 100 µM |
| COc1cc(C2c3cc4c(cc3OC(N3CCCC3)C2C)OCO4)cc(OC)c1O (stereo unspecified) | RPMI-8226 leukemia | > 100 µM |

Field: TGI. Fill in for each record below.
1. CNn1c(-c2ccccc2)n[nH]c1=O
2. CC(C)(C)[SiH]12(OC(C(F)(F)F)(C(F)(F)F)c3ccccc31)OC(C(F)(F)F)(C(F)(F)F)c1ccccc12

Ans:
> 100 µM
> 100 µM

----------
- Tested on: MCF7 breast
- PROCEDURE_TEXT: NCI tumour cell line growth inhibition, 48 h
Exercise: for every item that follows, state its recorded GI50.

These solved cases illustrate the format of a correct answer.
| MOLECULE | OBSERVED_MEASUREMENT |
| --- | --- |
| CCN1CCN(c2ccc(Nc3cc(N(C)C(=O)Nc4c(Cl)c(OC)cc(OC)c4Cl)ncn3)cc2)CC1 | 2.41 µM |
| O=S(=O)(Nc1cc(F)cc(Cl)c1)c1ccc(-c2cnc(C3CC3)o2)cc1 | 0.485 µM |
| CCOc1nc(-c2ccccc2)cc2c(O)c(-c3nnco3)[nH]c(=O)c12 | 0.507 µM |

Field: GI50. Fill in for each record below.
1. COc1ccc2c(c1)CCC1C2CC[C@@]2(C)C1CC1=CC(COC(C)=O)C3C(=O)c4ccccc4C(=O)C3C12 (some centres undefined)
2. CNCCCn1cc(C2=C(c3cn(C)c4ccccc34)C(=O)NC2=O)c2ccccc21
3. C#Cc1cccc(Nc2ncnc3cc(OC)c(OCCCCCCC(=O)NO)cc23)c1
4. CC(C)(C)C(=O)OCOP(=O)(OCOC(=O)C(C)(C)C)C1CCCN(O)C1=O (centres undefined)
5. Clc1coc2nc3ccccc3c(Nc3ccc4c(c3)OCO4)c12
6. O=S(=O)([O-])c1ccc2c(c1)-c1nc-2nc2[n-]c(nc3nc(nc4[n-]c(n1)c1ccc(S(=O)(=O)[O-])cc41)-c1cc(S(=O)(=O)[O-])ccc1-3)c1ccc(S(=O)(=O)[O-])cc21.[Cu+2].[Na+]
7. C/C1=C\CC[C@@]2(C)O[C@@H]2[C@H]2OC(=O)[C@@H](CN(C)C)[C@@H]2CC1

Ans:
["> 100 µM", "2.74 µM", "0.19 µM", "0.338 µM", "1.81 µM", "> 100 µM", "4.96 µM"]

Field: GI50. Fill in for each record below.
1. CCOC(=O)/C=C/C(C(=O)/C=C/c1ccc(OC2CCCCO2)c(OC)c1)=C(O)\C=C\c1ccc(OC2CCCCO2)c(OC)c1 (centres undefined)
2. C=C(C)[C@@]12OC3(/C=C/C=C/CCCCC)O[C@@H]1[C@@H]1[C@@H]4O[C@]4(CO)[C@@H](O)[C@]4(O)C(=O)C(C)=C[C@H]4[C@@]1(O3)[C@H](C)[C@H]2OC(=O)c1ccccc1
3. Cc1c2cccnc2c(C)c2c1c1cc(CO)ccc1n2C
4. C[C@H]1c2cccc(O)c2C(O)=C2C(=O)[C@]3(O)C(O)=C(C(N)=O)C(=O)[C@@H](N(C)C)[C@@H]3[C@@H](O)[C@@H]21

Ans:
["4.42 µM", "1.55 µM", "0.501 µM", "3.51 µM"]
